Give measured logD for each item. Keep answers brief.
Test: method code SF-AS, from DOI: 10.1002/jps.2600830428, PMID: 8046619
Details: pH 7.4
Numbers only.

Recorded results for 2 compounds are shown here.
Smiles Representation	logD
O=c1nc(N=CN2CCCC2)ccn1[C@@H]1O[C@H](CO)[C@@H](O)[C@@H]1O	-1.15
O=c1nc(/N=C/N2CCOCC2)ccn1[C@H]1C[C@H](O)[C@@H](CO)O1	-1.54

Query compound follows.
Q: Find the recorded logD belonging to `O=c1nc(N=CN2CCOCC2)ccn1[C@@H]1O[C@H](CO)[C@@H](O)[C@@H]1O` and report it.
Ans: -1.66
